Tested on: LoVo
test-description: SRB colorimetric assay of cell growth and viability, LoVo
Assay type: cell-based, human
experimental-conditions: 48 hours exposure, SRB
Where a SMILES comes first, the peptide text is derived from it. Bridges are numbered along the chain shown (N, C = ends). [ ]: non-standard residue; d: D form. The star is where a group is joined. d(aIle) = CC[C@H](C)[C@@H](N)C(=O)O; d(aThr) = C[C@@H](O)[C@@H](N)C(=O)O; Hexanoyl(5-Me) = CC(C)CCCC(=O)*; Orn = NCCC[C@H](N)C(=O)O; Dhb = C/C=C(\N)C(=O)O
outcome-measure: GI50 (µM)

compound | assay-target | outcome-measure | measurement
C/C=C1\NC(=O)[C@H](Cc2c[nH]c3ccccc23)NC(=O)[C@@H](C(C)C)NC(=O)[C@@H]([C@@H](C)CC)NC(=O)[C@H](NC(=O)[C@H](NC(=O)[C@H](CCCN)NC(=O)[C@H]2CCCN2C(=O)[C@H](NC(=O)[C@@H](NC(=O)[C@@H](NC(=O)[C@H](NC(=O)CCCC(C)C)C(C)C)[C@@H](C)O)C(C)C)C(C)C)[C@@H](C)CC)[C@@H](C)OC(=O)[C@H](C(C)C)NC1=O [Compound 68, [Trp^3]-KF] ({Hexanoyl(5-Me)}-[dV]TV[dV][dP][Orn][d(aIle)][d(aThr)][d(aIle)][dV]W[Dhb]V; ester 8-C) | LoVo | GI50 | 0.337

----------
Test system: A-549
test-description: SRB colorimetric assay of cell growth and viability, A-549
Type: cell-based, human
experimental-conditions: 48 hours exposure; read-out: LC50 A-549
Where a SMILES comes first, the peptide text is derived from it. Bridges are numbered along the chain shown (N, C = ends). [ ]: non-standard residue; d: D form. The star is where a group is joined. d(aIle) = CC[C@H](C)[C@@H](N)C(=O)O; d(aThr) = C[C@@H](O)[C@@H](N)C(=O)O; Hexanoyl(5-Me) = CC(C)CCCC(=O)*; Orn = NCCC[C@H](N)C(=O)O; Dhb = C/C=C(\N)C(=O)O

compound | CC50 (µM)
C/C=C1\NC(=O)[C@H](Cc2ccccc2)NC(=O)[C@@H](C(C)C)NC(=O)[C@@H]([C@@H](C)CC)NC(=O)[C@H](NC(=O)[C@H](NC(=O)[C@H](CCCN)NC(=O)[C@H]2CCCN2C(=O)[C@H](NC(=O)[C@@H](NC(=O)[C@@H](NC(=O)[C@H](NC(=O)CCCCCCCCCC)C(C)C)[C@@H](C)O)C(C)C)C(C)C)[C@@H](C)CC)[C@@H](C)OC(=O)[C@H](C(C)C)NC1=O [Compound 15, [Und^14]-KF] | 1.69
C/C=C1\NC(=O)[C@H](Cc2ccccc2)NC(=O)[C@@H](C(C)C)NC(=O)[C@@H]([C@@H](C)CC)NC(=O)[C@H](NC(=O)[C@H](NC(=O)[C@H](CCCN)NC(=O)[C@H]2CCCN2C(=O)[C@H](NC(=O)[C@H](CCCN)NC(=O)[C@@H](NC(=O)[C@H](NC(=O)CCCC(C)C)C(C)C)[C@@H](C)O)C(C)C)[C@@H](C)CC)[C@@H](C)OC(=O)[C@H](C(C)C)NC1=O [Compound 49, [Orn^11]-KF] ({Hexanoyl(5-Me)}-[dV]T[Orn][dV][dP][Orn][d(aIle)][d(aThr)][d(aIle)][dV]F[Dhb]V; ester 8-C) | 6.7
